ATTRIBUTE_MEASURED: melting point

Below, 6 compounds whose answers are already recorded.
>>> result("COc1ccc(Cc2nc(N3CCOCC3)c3c(C)c(C#N)sc3n2)cc1OC")
"67 to 70 °C"
>>> result("CCN(CC)c1nc(-c2ccncc2)nc2sc(C#N)c(C)c12")
"169 to 171 °C"
>>> result("Cc1ccc(-c2nc(N3CCN(C)CC3)c3c(C)c(C#N)sc3n2)cc1")
"207 to 209 °C"
>>> result("Cc1c(C#N)sc2nc(Cc3ccccc3)nc(N3CCOCC3)c12")
"88 to 90 °C"
>>> result("COc1cc(-c2nc(NC3CCCC3)c3c(C)c(C#N)sc3n2)cc(OC)c1OC")
"218 to 220 °C"
>>> result("CCNc1nc(Cc2ccc(OC)c(OC)c2)nc2sc(C#N)c(C)c12")
"125 to 126 °C"

Challenge: // query melting point value for entry `CCC(CC)Nc1nc(-c2cc(OC)c(OC)c(OC)c2)nc2sc(C#N)c(C)c12`
Response given: 226 to 228 °C

Challenge: Also, `Cc1c(C#N)sc2nc(-c3ccc4c(c3)OCO4)nc(N3CCN(C)CC3)c12` please.
Response given: 196 to 197 °C

Challenge: Also, `Cc1ccc(-c2nc(N3CCOCC3)c3c(C)c(C#N)sc3n2)cc1` please.
Response given: 206 to 207 °C

Challenge: Also, `CCN(CC)c1nc(Cc2ccc(OC)c(OC)c2)nc2sc(C#N)c(C)c12` please.
Response given: 107 to 109 °C

Challenge: Also, `CCN(C)c1nc(-c2ccc(OC)cc2)nc2sc(C#N)c(C)c12` please.
Response given: 122 to 123 °C

Challenge: Also, `Cc1c(C#N)sc2nc(CCCc3ccccc3)nc(N3CCN(C)CC3)c12` please.
Response given: 101 to 103 °C

Challenge: Also, `Cc1c(C#N)sc2nc(-c3ccncc3)nc(N(C)CCO)c12` please.
Response given: 194 to 195 °C

Challenge: Also, `COc1cc(-c2nc(N(C)CCN)c3c(C)c(C#N)sc3n2)cc(OC)c1OC` please.
Response given: > 290 °C

Challenge: Also, `CCN(C)c1nc(-c2cc(OC)cc(OC)c2)nc2sc(C#N)c(C)c12` please.
Response given: 145 to 148 °C

Challenge: Also, `Cc1c(C#N)sc2nc(-c3ccccc3)nc(N3CCCCC3)c12` please.
Response given: 142 to 144 °C

Challenge: Also, `COCCNc1nc(Cc2ccc(OC)c(OC)c2)nc2sc(C#N)c(C)c12` please.
Response given: 94 to 97 °C

Challenge: Also, `COc1cc(Cc2nc(NCC(C)C)c3c(C)c(C#N)sc3n2)cc(OC)c1OC` please.
Response given: 129 to 131 °C

Challenge: Also, `CCN(C)c1nc(-c2ccncc2)nc2sc(C#N)c(C)c12` please.
Response given: 162 to 164 °C

###

ATTRIBUTE_MEASURED: melting point

Below, 3 compounds whose answers are already recorded.
>>> result("C=CCN(C)c1nc(-c2cc(OC)c(OC)c(OC)c2)nc2sc(C#N)c(C)c12 [Example 78]")
"162 to 164 °C"
>>> result("CCN1CCN(c2nc(-c3ccc(OC)cc3)nc3sc(C#N)c(C)c23)CC1 [Example 2]")
"173 to 175 °C"
>>> result("CCNc1nc(Cc2cc(OC)c(OC)c(OC)c2)nc2sc(C#N)c(C)c12 [Example 111]")
"164 to 165 °C"

# input for lookup
Challenge: // query melting point value for entry COc1cc(Cc2nc(NC(C)(C)C)c3c(C)c(C#N)sc3n2)cc(OC)c1OC [Example 116]
Response given: 146 to 148 °C

###

As shown below, each of these compounds has a reported melting point value.

Below, 5 compounds whose answers are already recorded.
>>> result("COc1cc(-c2nc(N3CCOCC3)c3c(C)c(C#N)sc3n2)cc(OC)c1OC")
"> 250 °C"
>>> result("Cc1c(C#N)sc2nc(-c3ccccc3)nc(N3CCN(C)CC3)c12")
"223 to 225 °C"
>>> result("COc1cc(-c2nc(N(C)CCO)c3c(C)c(C#N)sc3n2)cc(OC)c1OC")
"164 to 166 °C"
>>> result("CCNc1nc(-c2cc(OC)cc(OC)c2)nc2sc(C#N)c(C)c12")
"207 to 208 °C"
>>> result("Cc1c(C#N)sc2nc(-c3ccc([N+](=O)[O-])cc3)nc(N3CCNCC3)c12")
"250 °C"

Challenge: // query melting point value for entry `C#CCN(C)c1nc(-c2ccc(OC)cc2)nc2sc(C#N)c(C)c12`
Response given: 160 to 171 °C

Challenge: Also, `COc1ccc(-c2nc(N(C)C)c3c(C)c(C#N)sc3n2)cc1OC` please.
Response given: 198 to 200 °C

Challenge: Also, `CCCCN(CCCC)c1nc(-c2ccc(OC)cc2)nc2sc(C#N)c(C)c12` please.
Response given: 96 to 98 °C

Challenge: Also, `CCN(CC)c1nc(-c2ccc3c(c2)OCO3)nc2sc(C#N)c(C)c12` please.
Response given: 199 to 201 °C

Challenge: Also, `COc1ccc(Cc2nc(NCCO)c3c(C)c(C#N)sc3n2)cc1OC` please.
Response given: 149 to 151 °C

Challenge: Also, `CCCCNc1nc(-c2cc(OC)c(OC)c(OC)c2)nc2sc(C#N)c(C)c12` please.
Response given: 192 to 194 °C

Challenge: Also, `Cc1c(C#N)sc2nc(CCc3ccccc3)nc(NC3CCC3)c12` please.
Response given: 153 to 155 °C

Challenge: Also, `COc1cc(-c2nc(NC(C)(C)C)c3c(C)c(C#N)sc3n2)cc(OC)c1OC` please.
Response given: 195 to 197 °C

Challenge: Also, CCC(C)Nc1nc(Cc2cc(OC)c(OC)c(OC)c2)nc2sc(C#N)c(C)c12 (stereo not drawn) please.
Response given: 134 to 137 °C

Challenge: Also, `CCN1CCN(c2nc(-c3ccccc3)nc3sc(C#N)c(C)c23)CC1` please.
Response given: 178 to 179 °C

Challenge: Also, `CNc1nc(Cc2cc(OC)c(OC)c(OC)c2)nc2sc(C#N)c(C)c12` please.
Response given: 194 to 195 °C

Challenge: Also, `COc1cc(-c2nc(-n3cccn3)c3c(C)c(C#N)sc3n2)cc(OC)c1OC` please.
Response given: 209 to 214 °C

Challenge: Also, `COc1ccc(-c2nc(N3CCNCC3)c3c(C)c(C#N)sc3n2)cc1` please.
Response given: 210 to 212 °C

###

As shown below, each of these compounds has a reported melting point value.

Challenge: // query melting point value for entry `COc1ccc(-c2nc(N3CCCC3)c3c(C)c(C#N)sc3n2)cc1`
Response given: 176 to 178 °C

Challenge: Also, `COc1ccc(-c2nc(N(C)CCO)c3c(C)c(C#N)sc3n2)cc1` please.
Response given: 144 to 146 °C

Challenge: Also, `Cc1c(C#N)sc2nc(-c3ccc(Cl)cc3)nc(N3CCOCC3)c12` please.
Response given: 205 to 207 °C

Challenge: Also, `Cc1c(C#N)sc2nc(-c3ccccc3)nc(N3CCNCC3)c12` please.
Response given: 251 to 253 °C

Challenge: Also, `C=CCN(C)c1nc(Cc2ccc(OC)c(OC)c2)nc2sc(C#N)c(C)c12` please.
Response given: 98 to 100 °C

Challenge: Also, `CCC(CC)Nc1nc(Cc2cc(OC)c(OC)c(OC)c2)nc2sc(C#N)c(C)c12` please.
Response given: 127 to 129 °C

###

As shown below, each of these compounds has a reported melting point value.

Challenge: // query melting point value for entry `COc1cc(-c2nc(-n3nccn3)c3c(C)c(C#N)sc3n2)cc(OC)c1OC`
Response given: 208 to 210 °C

Challenge: Also, COc1cc(-c2nc(N3CCNC(C)C3)c3c(C)c(C#N)sc3n2)cc(OC)c1OC (stereo not shown) please.
Response given: 213 to 215 °C

Challenge: Also, `Cc1c(C#N)sc2nc(-c3ccc(Cl)cc3)nc(N3CCN(C)CC3)c12` please.
Response given: 209 to 210 °C

Challenge: Also, `COc1cc(-c2nc(-n3ccnc3)c3c(C)c(C#N)sc3n2)cc(OC)c1OC` please.
Response given: 238 to 240 °C

###

As shown below, each of these compounds has a reported melting point value.

Challenge: // query melting point value for entry `COc1ccc(-c2nc(N(C)C)c3c(C)c(C#N)sc3n2)cc1`
Response given: 123 to 125 °C

Challenge: Also, `COc1ccc(-c2nc(N3CCOCC3)c3c(C)c(C#N)sc3n2)cc1OC` please.
Response given: 194 to 196 °C
